EXPERIMENTAL TARGET: BRD4 BD1 (Homo sapiens (Human))
TEST: FP competitive binding assay using Cpd. No. 350 as the probe
MEASURED QUANTITY: log10 of Ki (log10 of the value in µM)
Log10 applied to Ki; unit prior to transform: µM.

For this compound ( COc1cc2c(cc1-c1c(C)noc1C)[nH]c1ccnc(-c3c(C)n[nH]c3C)c12 [Cpd. No. 22] ), measured log10 of Ki is -1.36

Item: COc1cc2c(cc1-c1c(C)noc1C)[nH]c1ccnc(-c3c(C4CC4)n[nH]c3C)c12 [Cpd. No. 24] | log10 of Ki: -0.94

Entry COc1cc2c(cc1-c1c(C)nn(C)c1C)[nH]c1ccnc(-c3c(C)nn(C)c3C)c12 [Cpd. No. 33] , log10 of Ki reported as 0.24

Briefly, log10 of Ki measured for CCc1n[nH]c(CC)c1-c1nccc2[nH]c3cc(-c4c(C)noc4C)c(OC)cc3c12 [Cpd. No. 23] : -1.61

COc1cc2c(cc1-c1c(C)noc1C)[nH]c1ccncc12 [Cpd. No. 1] yielded log10 of Ki of -1.32

###

EXPERIMENTAL TARGET: BRD2 BD2 (Homo sapiens (Human))
TEST: FP competitive binding assay (BRD-1F probe)
EXPERIMENTAL PARAMETERS: BRD-1F probe, calculated from IC50
Can you tell me pKi for the items I'm about to list?
Scale: pKi equals -log10([C]), with [C] in mol/L.

Item COc1cc2c(cc1-c1c(C)noc1C)[nH]c1ccnc(-c3cn[nH]c3)c12 was tested on BRD2 BD2 (Homo sapiens (Human)); the reported pKi is 7.37

Entry COc1cc2c(cc1-c1c(C)noc1C)[nH]c1ccnc(-c3cccnc3)c12 under BRD2 BD2 (Homo sapiens (Human)) had pKi of 7.24

Entry COc1cc2c(cc1-c1c(C)noc1C)[nH]c1ccncc12 , BRD2 BD2 (Homo sapiens (Human)) data, pKi value: 6.44

# COc1cc2c(cc1-c1c(C)n[nH]c1C)[nH]c1ccnc(-c3c(C)n[nH]c3C)c12 with BRD2 BD2 (Homo sapiens (Human)): pKi is 5.92

// pKi (BRD2 BD2 (Homo sapiens (Human))) for COc1cc2c(cc1-c1c(C)noc1C)[nH]c1ccnc(-c3ccccc3)c12 = 7.46

###

For each entry below, report its pKi value.
EXPERIMENTAL TARGET: BRD3 BD1 (Homo sapiens (Human), UniProt Q15059)
Sequence (Q15059 34-140): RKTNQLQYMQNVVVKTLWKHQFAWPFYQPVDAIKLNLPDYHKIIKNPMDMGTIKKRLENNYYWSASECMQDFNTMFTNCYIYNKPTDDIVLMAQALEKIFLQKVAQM
TEST: FP competitive binding assay using Cpd. No. 350 as the probe
Formally, pKi is defined as -log10 of the concentration c, with c in mol/L.

pKi reading for COc1cc2c(cc1-c1c(C)noc1C)[nH]c1ccncc12 : 7.83

According to the records, this molecule COc1cc2c(cc1-c1c(C)noc1C)[nH]c1ccnc(-c3c(C4CC4)n[nH]c3C)c12 displays pKi of 7.42

For COc1cc2c(cc1-c1c(C)nn(C)c1C)[nH]c1ccnc(-c3c(C)nn(C)c3C)c12 the molecule record lists pKi as 5.91

###

EXPERIMENTAL TARGET: BRD4 BD2 (Homo sapiens (Human))
TEST: FP competitive binding assay using Cpd. No. 350 as the probe
EXPERIMENTAL PARAMETERS: read-out: BRD4 BD2 Ki; FP, Cpd. No. 350 probe […]
Lab note - cut at 7 nM for Ki: TRUE if strictly below, FALSE if not.

Exam item: A record lists COc1cc2c(cc1-c1c(C)noc1C)[nH]c1nc(C)nc(-c3ccc(C(=O)NC4CCN(C5COC5)CC4)c4ccccc34)c12 [Cpd. No. 197] . Is its Ki below 7 nM?
Marked response: FALSE

Exam item: Report whether reported Ki is lower than 7 nM (strictly) for COc1cc2c(cc1-c1c(C)noc1C)[nH]c1nc(C)nc(-c3c(C)[nH]c4ccccc34)c12 [Cpd. No. 68]
Marked response: TRUE

Exam item: Please state whether Ki is below 7 nM for COc1cc2c(cc1-c1c(C)noc1C)[nH]c1nc(C)nc(-c3cc(C(=O)NC4CCN(C5CCOCC5)CC4)[nH]c3C(C)C)c12 [Cpd. No. 212]
Marked response: TRUE

Exam item: Could you please tell me whether Ki recorded for COc1cc2c(cc1-c1c(C)noc1C)[nH]c1nc(C)nc(-c3cc(C(=O)NC4CCN(C5COC5)CC4)[nH]c3C(C)C)c12 [Cpd. No. 213] is less than 7 nM?
Marked response: TRUE

Exam item: Record COc1cc2c(cc1-c1c(C)noc1C)[nH]c1nc(C)nc(-c3ccnc4ccccc34)c12 [Cpd. No. 73] : is its Ki strictly below 7 nM?
Marked response: FALSE

Exam item: Strictly below 7 nM in Ki? COc1cc2c(cc1-c1c(C)noc1C)[nH]c1ccnc(-c3c(C)nn(-c4ccccc4)c3C)c12 [Cpd. No. 352]
Marked response: FALSE

Exam item: # check: Ki < 7 nM for COc1cc2c(cc1-c1c(C)noc1C)[nH]c1nc(C)nc(-c3cc(C(=O)NC4CCN(C)CC4)[nH]c3C(C)C)c12 [Cpd. No. 211]
Marked response: TRUE

###

EXPERIMENTAL TARGET: BRD2 BD2 (Homo sapiens (Human), UniProt P25440)
Sequence (P25440 344-453): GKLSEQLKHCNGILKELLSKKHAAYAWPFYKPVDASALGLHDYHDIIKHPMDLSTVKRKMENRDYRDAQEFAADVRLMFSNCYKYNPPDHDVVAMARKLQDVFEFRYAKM
TEST: FP competitive binding assay using Cpd. No. 350 as the probe
EXPERIMENTAL PARAMETERS: read-out: BRD2 BD2 Ki; FP, Cpd. No. 350 probe […]
MEASURED QUANTITY: log10(Ki) (log10 of the value in nM)
For clarity, the numbers are log10 values of Ki expressed in nM.

Documented log10(Ki) of COc1cc2c(cc1-c1c(C)noc1C)[nH]c1ccnc(-c3cn[nH]c3)c12 : 1.95

For reference, reported log10(Ki) for COc1cc2c(cc1-c1c(C)noc1C)[nH]c1nc(C)nc(-c3cccc(C(C)(C)O)c3)c12 stands at 0.94

Entry COc1cc2c(cc1-c1c(C)noc1C)[nH]c1nc(C)nc(-c3cc(C(=O)NC4CCN(C)CC4)[nH]c3C(C)C)c12 — recorded log10(Ki) = 0.69

Item: CCc1noc(C)c1-c1cc2[nH]c3ccnc(Cl)c3c2cc1OC | log10(Ki): 2.80

Lab book: log10(Ki) of COc1cc2c(cc1-c1c(C)nn(C)c1C)[nH]c1ccnc(Cl)c12 noted as 3.45

Reported log10(Ki) of CCc1onc(C)c1-c1cc2[nH]c3ccnc(Cl)c3c2cc1OC : 3.27

Per the records, this compound ( COc1cc2c(cc1-c1c(C)noc1C)[nH]c1nc(C)nc(-c3cc(C(=O)NC4CCN(C5CCOCC5)CC4)[nH]c3C(C)C)c12 ) has log10(Ki) equal to 0.66

Documented log10(Ki) of COc1cc2c(cc1-c1c(C)noc1C)[nH]c1ccnc(-c3c(C)nn(-c4ccccc4)c3C)c12 : 1.72

log10(Ki) reading for COc1cc2c(cc1-c1c(C)noc1C)[nH]c1nc(C)nc(-c3ccc(C(=O)N4CCN(C)CC4)c4ccccc34)c12 : 0.71

The reported log10(Ki) of the compound COc1cc2c(cc1-c1c(C)noc1C)[nH]c1nc(C)nc(-c3ccnc4ccccc34)c12 was 0.94

The compound COc1cc2c(cc1-c1c(C)noc1C)[nH]c1nc(C)nc(-c3ccc(C(=O)NC4CCN(C)CC4)c4ccccc34)c12 showed log10(Ki) equal to 0.54

Form: compound = COc1cc2c(cc1-c1c(C)noc1C)[nH]c1ccnc(-c3c(C)n[nH]c3C)c12 ; log10(Ki) = 1.76

Entry under test: COc1cc2c(cc1-c1c(C)noc1C)[nH]c1nc(C)nc(-c3ccc(C(=O)NC4CCN(C5COC5)CC4)c4ccccc34)c12 . Its log10(Ki) was 0.56

Record COc1cc2c(cc1-c1c(C)noc1C)[nH]c1ccncc12 . Reported log10(Ki): 2.70

Field log10(Ki) (entry COc1cc2c(cc1-c1c(C)noc1C)[nH]c1ccnc(Cl)c12 ) reads 2.04

So, COc1cc2c(cc1-c1c(C)noc1C)[nH]c1nc(C)nc(-c3c(C)[nH]c4ccccc34)c12 ? Its log10(Ki) was 0.43

log10(Ki) reported for this compound COc1cc2c(cc1-c1c(C)noc1C)[nH]c1nc(C)nc(-c3cc(C(=O)NC4CCN(C5COC5)CC4)[nH]c3C(C)C)c12 : 0.85

###

EXPERIMENTAL TARGET: BRD4 BD1 (Homo sapiens (Human), UniProt O60885)
TEST: FP protein saturation experiment with probe Cpd. No. 350
Type: binding
EXPERIMENTAL PARAMETERS: probe 1.5 nM
Protocol: Fluorescence Polarization (FP) competitive binding studies (see above) were carried out using the FAM labeled fluorescent probe Cpd. No. 350 to determine binding affinities of representative compounds to both BD1 and BD2 of BRD2, BRD3, and BRD4 proteins. Equilibrium dissociation constants (Id) values of Cpd. […] Final Cpd. […] Kd values of Cpd.
MEASURED QUANTITY: Kd (nM)
Report the value in nM with no unit label.

Just so you know, measured Kd for COc1cc2c(cc1-c1c(C)noc1C)[nH]c1nc(C(=O)NC3CCN(CCCNC(=O)c4ccc(-c5c6ccc(=O)cc-6oc6cc(O)ccc56)c(C(=O)O)c4)CC3)nc(-c3ccnc4ccc(F)cc34)c12 [Cpd. No. 350] came out at 5.5

Where these numbers come from: patent US9675697B2
